- testedOn: γ2δ3 TCR-hFc mutant S2 (D26N, K85L in the Vδ3 chain) (human) (UniProt B7Z8K6)
- measurementProtocol: Luminex beads; TCR-hFc captured by goat anti-human Fc; antibody titrated
assayReadout: EC50 (nM)
Numeric answer only, unit nM assumed.

input: // fetch EC50 given entry δ3-23 (antibody, V domains shown) VH: EVQLQQSGAELVKPGASVKLSCTASGFNIRDTYMHWVKQRPEQGLEWIGRIDPANGNTKYDPKFRGKATITADTSSNTAYLQLSSLTSEGTAVYYCSEGIYFDYWGQGTTLTVSS VL: DILLTQSPAILSVSPGERVSFSCRASQNIGTIIHWYQQRANGSPRLLIKYASESISGIPSRFSGSGSGTDFTLSINSVESEDIADYYCQQSNSWPYTFGGGTKLEIKR
output: 0.04
